The measurements presented in this section are drawn from patent US4272437A.

Test system: Str. pyogenes A-9604
assay procedure: MIC, tube dilution, Streptococcus pyogenes A9604
Assay type: cell-based
protocol conditions: Str. pyogenes A9604; overnight 37° C., Nutrient Broth
Kindly supply the reported Minimum Inhibitory Concentration (M.I.C.) values for the records listed here.

Inquiry: Query: Minimum Inhibitory Concentration (M.I.C.); subject: CC1=C(C(=O)O)N2C(=O)C[C@H]2S1 [Preparation 4(+), (+)-2-Methylpenem-3-carboxylic Acid]
Reply text: 0.25 µg/mL

Inquiry: Cool, now NC1CCC(C2=C(C(=O)O)N3C(=O)C[C@H]3S2)C1 (single isomer, unassigned) [98 isomer A]
Reply text: .004 µg/mL

Inquiry: Cool, now CC1=C(C(=O)O)N2C(=O)[C@@H]([C@@H](C)O)[C@H]2S1 (relative stereo)
Reply text: 2 µg/mL

Inquiry: Cool, now "NCCCCCC1=C(C(=O)O)N2C(=O)C[C@H]2S1"
Reply text: .016 µg/mL

Inquiry: Cool, now O=C([O-])C1=C(Cc2ccccc2)S[C@@H]2CC(=O)N12.[Na+] [Preparation 21, Sodium 2-Benzylpenem-3-carboxylate]
Reply text: 8 µg/mL

Inquiry: Cool, now NC1CCC(C2=C(C(=O)O)N3C(=O)C[C@H]3S2)C1 (single isomer, unassigned) [98 isomer B]
Reply text: .008 µg/mL

Inquiry: Cool, now NC1CCC(C2=C(C(=O)O)N3C(=O)C[C@H]3S2)C1 (single isomer, unassigned) [98 isomer C]
Reply text: .06 µg/mL

Inquiry: Cool, now "O=C(O)C1=C(COc2ccccc2)S[C@@H]2CC(=O)N12"
Reply text: .5 µg/mL

Inquiry: Cool, now COP(=O)(CCC1=C(C(=O)O)N2C(=O)CC2S1)OC (centres unmarked)
Reply text: .13 µg/mL

Inquiry: Cool, now CCC1C(=O)N2C(C(=O)[O-])=C(C)S[C@H]12.[Na+] (stereo partly drawn) [1 (trans)]
Reply text: 4 µg/mL

Inquiry: Cool, now CC1=C(C(=O)O)N2C(=O)C[C@H]2S1 [Preparation 4(-), (-)-2-Methylpenem-3-carboxylic Acid]
Reply text: 8 µg/mL
